# System: Mycobacterium tuberculosis
# methodSummary: Antimicrobial activity against multi drug-resistant Mycobacterium tuberculosis 12611 after 7 days by MABA
# Assay type: functional
# measurementConditions: Mycobacterium tuberculosis, 12611, 168 h
Reported MIC90 values for the following molecules.

smilesEntry	MIC90
O=c1nc(N2CCN(CC3CCCCC3)CC2)sc2c([N+](=O)[O-])cc(C(F)(F)F)cc12	< 0.002 µg/mL
NNC(=O)c1ccncc1	19.5 µg/mL
O=c1cc(N2CCN(Cc3ccccc3)CC2)sc2c([N+](=O)[O-])cc(C(F)(F)F)cc12	0.011 µg/mL

Query: For Mycobacterium tuberculosis, give MIC90 of the listed molecule: O=c1cc(N2CCN(CC3CCCCC3)CC2)sc2c([N+](=O)[O-])cc(C(F)(F)F)cc12
Result: < 0.002 µg/mL

Query: For Mycobacterium tuberculosis, give MIC90 of the listed molecule: CO[C@H]1/C=C/O[C@@]2(C)Oc3c(C)c(O)c4c(O)c(c(/C=N/N5CCN(C)CC5)c(O)c4c3C2=O)NC(=O)/C(C)=C\C=C\[C@H](C)[C@H](O)[C@@H](C)[C@@H](O)[C@@H](C)[C@H](OC(C)=O)[C@@H]1C
Result: > 40 µg/mL
